These measurements were taken from PubChem BioAssay (NCATS).

Test: Primary qHTS for inhibitors of nuclear receptor binding SET domain protein 2 (NSD2) in an isogenic RCH-ACV NSD2 p.E1099K mutant (9B) (AID 1645876); note: nearly all actives have a fitted effect of over 70% in size
Details: RCH-ACV (leukaemia line) NSD2 E1099K (9B) viability, CellTiter-Glo, 72 h; series mostly up to 44.9 µM
Records with an inconclusive call do not appear. Calls of active or inactive are those of the source. Calls come from the whole dose curve; as a rule, active = well fitted inhibition curve with a large enough effect; inconclusive = small, poorly fitted or top-dose-only effect; inactive = flat fitted curve, though single readings scatter.
// allowed return values: t = active, f = inactive

MOLECULE	CATEGORY
C=C1C(=O)O[C@@H]2[C@H]1CC[C@H](C)[C@]1(CCC(=O)O1)C2(C)O (stereo not given in full)	t
COC(=O)C(Cc1ccc(OCCn2c(=O)sc3cc(C(=O)c4ccccc4)ccc32)cc1)C(=O)OC	f
CN1c2c(nc(N)[nH]c2=O)NC[C@@H]1CNc1ccc(C(=O)N[C@@H](CCC(=O)O)C(=O)O)cc1	f
N#Cc1ccc(O[C@@H]2c3ccccc3C[C@H]2N2CCC[C@@H](N)C2)c(Cl)c1	t

Now look at this one.
Q: # fetch the recorded call for CC(C)(C)NC(=O)[C@H]1CC[C@H]2[C@@H]3CC[C@H]4NC(=O)CC[C@]4(C)[C@H]3CC[C@]12C here
Ans: f

====

Assay: Confirmatory screen GU Rhodamine qHTS for Zika virus inhibitors qHTS (AID 1347157); note: potency is the fitted concentration of half-maximal effect; nearly all actives have a fitted effect of over 70% in size
Settings: purified enzyme assay, Rhodamine110 substrate fluorescence, 15 min; series mostly up to 114 µM
Records with an inconclusive call do not appear. The source made the active and inactive calls. Calls follow the shape of the dose curve; as a rule, active = well fitted inhibition curve with a large enough effect; inconclusive = small, poorly fitted or top-dose-only effect; inactive = flat fitted curve, though single readings scatter.
QUANTITY MEASURED: Potency

Completed entries (count: 5):
COMPOUND	Potency
O=C(Nc1ccc(-c2ccc(Cl)c(Cl)c2)cc1)C1=C(O)c2ccccc2S(=O)(=O)N1	2.48 µM (active)
Cc1cc(C)c2c(c1)C(N(Cc1cc(C(F)(F)F)cc(C(F)(F)F)c1)c1nnn(C)n1)CCCN2CC1CCC(C(=O)O)CC1 (stereo unspecified)	8.79 µM (active)
COc1ccc(-c2ccccc2)cc1NS(=O)(=O)c1cc(Cl)cc(Cl)c1O	1.21 µM (active)
O=C(O)c1cccc(-c2ccc(-c3cn(C(=O)N4CCCCC4Cc4ccccc4)nn3)cc2)c1 (stereo unspecified)	4.41 µM (active)
CC(C)C[C@H](C(=O)O)c1cc(-c2ccc(C(F)(F)F)cc2)cc(-c2ccc(C(F)(F)F)cc2)c1	3.12 µM (active)

Q: Fill blank: measured Potency of the compound CC(O)(C(=O)O)C1CCC2(C)C1CCC1(C)C2CCC2C3(C)CCC(O)C(C)(COC4OC(CO)C(O)C(O)C4O)C3CCC21C (stereo unspecified) is ____.
Ans: 13.1 µM (active)

Q: Give its Potency value. Item: O=C(Nc1ccc(/C=C/c2ccc(NC(=O)c3cc(S(=O)(=O)O)c4cccnc4c3O)cc2S(=O)(=O)O)c(S(=O)(=O)O)c1)c1cc(S(=O)(=O)O)c2cccnc2c1O
Ans: 2.82 µM (active)

Q: Param item = C=C1/C(=C/C=C2\CCC[C@]3(C)[C@@H]([C@H](C)/C=C/[C@@H](C)C(C)C)CC[C@@H]23)C[C@@H](O)C[C@@H]1O ; retrieve measured Potency.
Ans: 49.4 µM (active)

Q: What Potency value was documented for this compound, O=S(=O)(Nc1cc(Cl)c(Oc2cnc3ccccc3c2)c(Cl)c1)c1ccc(Cl)cc1Cl ?
Ans: 1.75 µM (active)

Q: Which measured Potency value corresponds to COc1cc(C(=O)O)ccc1NC(=O)C1NC(CC(C)(C)C)C(C#N)(c2ccc(Cl)cc2F)C1c1cccc(Cl)c1F (stereo unspecified) ?
Ans: 4.41 µM (active)
